# System: K562 cell line
# ASSAY METHOD TEXT: MTT cytotoxicity assay
# TEST CONTEXT: read-out: Cytotoxicity IC50, K562; MTT method, 72 h (Table 5); NA = no activity
Reported pIC50 values for the following molecules.
Note: pIC50 values are expressed as the negative base-10 logarithm of concentration in M.

INSERT INTO results (molecule, measured_property, measured_number) VALUES
  ('COc1cccc2c1C(=O)c1c(O)c3c(c(O)c1C2=O)C[C@@](O)(C(=O)CO)C[C@@H]3O[C@H]1C[C@H](N)[C@H](O)[C@H](C)O1 [Adriamycin, reference compound]', 'pIC50', 6.60);

# ---- query molecule ----
Query: Check the records and state pIC50 for COc1cc(-c2ccccn2)nc(/C=N/O)c1[S+](C)[O-] (racemic) [(±)-3, pyrisulfoxin A]
Result: 4.89
